target: Potassium voltage-gated channel subfamily KQT member 2 (Rattus norvegicus) (UniProt O88943); test: blockers of KCNQ2 thallium flux – cell-based, confirmation (AID 493025); settings: KCNQ2-expressing cells, at 10 µM; stronger effect = lower value;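 note: 0% = vehicle wells and values are ratio percent relative to vehicle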
Sequence (O88943 whole entry, looked up): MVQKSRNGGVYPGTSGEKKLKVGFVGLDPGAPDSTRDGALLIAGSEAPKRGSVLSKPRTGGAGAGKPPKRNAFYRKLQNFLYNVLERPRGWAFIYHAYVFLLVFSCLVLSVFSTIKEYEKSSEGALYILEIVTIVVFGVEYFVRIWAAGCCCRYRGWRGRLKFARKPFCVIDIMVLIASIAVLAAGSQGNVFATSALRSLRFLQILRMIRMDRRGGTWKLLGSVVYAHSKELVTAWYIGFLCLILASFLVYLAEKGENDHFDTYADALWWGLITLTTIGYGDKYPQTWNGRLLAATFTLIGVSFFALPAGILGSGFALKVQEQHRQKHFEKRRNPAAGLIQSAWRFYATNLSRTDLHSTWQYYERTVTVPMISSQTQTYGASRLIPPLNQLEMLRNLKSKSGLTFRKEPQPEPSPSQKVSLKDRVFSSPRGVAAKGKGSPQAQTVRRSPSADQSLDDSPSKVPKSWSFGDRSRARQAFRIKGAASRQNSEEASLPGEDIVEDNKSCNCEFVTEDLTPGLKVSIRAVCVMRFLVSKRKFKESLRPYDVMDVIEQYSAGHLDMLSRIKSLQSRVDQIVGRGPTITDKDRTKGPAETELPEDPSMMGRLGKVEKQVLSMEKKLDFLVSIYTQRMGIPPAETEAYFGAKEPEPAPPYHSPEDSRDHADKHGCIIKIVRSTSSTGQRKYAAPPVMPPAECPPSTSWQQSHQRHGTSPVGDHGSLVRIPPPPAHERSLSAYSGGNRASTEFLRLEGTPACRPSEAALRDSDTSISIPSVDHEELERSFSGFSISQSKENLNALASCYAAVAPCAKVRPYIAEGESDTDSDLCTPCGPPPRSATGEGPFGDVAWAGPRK
Among all 1,000 compounds or so, about 570 (57%) were called active. So high a share suggests a set chosen from earlier hits. The list is a sample of the results.
Listing of recorded activity change, negative = inhibition by entry.

Some compounds with known activity change, negative = inhibition results, for comparison:
{"columns": ["Compound", "Reported measurement"],
 "data": [
  ["CCc1ccc2ncc(C(=O)c3ccccc3)c(N3CCOCC3)c2c1", "-20.5% (active)"],
  ["O=C(Nc1ccccc1Cl)/C(Cl)=C(\\Cl)S(=O)c1ccccc1 (stereo unspecified)", "-22.5% (active)"],
  ["COc1ccc(CN(C)C(C)C(=O)NC2CCCc3ccccc32)cc1 (stereo unspecified)", "-19.5% (active)"],
  ["Cc1ccccc1C(=O)Nc1ccccc1Sc1ccccc1", "-26% (active)"],
  ["CCc1ccc(-c2nn(-c3ccccc3)cc2CSC(=N)N)cc1", "-37.5% (active)"]
]}

Please find the next compound below.
I would be grateful if you could share the reported activity change, negative = inhibition for Fc1ccc2[nH]c3c(N4CCSCC4)ncnc3c2c1 .
-38.5% (active)
